Target: AMPA receptor (human GluR1 flip/stargazin expressed in CHO-K1 cells) (Homo sapiens)
Construct: expressed in transfected cells; host or cells: CHO-K1
Sequence (P42261 19-906 isoform P42261-2 limits assumed): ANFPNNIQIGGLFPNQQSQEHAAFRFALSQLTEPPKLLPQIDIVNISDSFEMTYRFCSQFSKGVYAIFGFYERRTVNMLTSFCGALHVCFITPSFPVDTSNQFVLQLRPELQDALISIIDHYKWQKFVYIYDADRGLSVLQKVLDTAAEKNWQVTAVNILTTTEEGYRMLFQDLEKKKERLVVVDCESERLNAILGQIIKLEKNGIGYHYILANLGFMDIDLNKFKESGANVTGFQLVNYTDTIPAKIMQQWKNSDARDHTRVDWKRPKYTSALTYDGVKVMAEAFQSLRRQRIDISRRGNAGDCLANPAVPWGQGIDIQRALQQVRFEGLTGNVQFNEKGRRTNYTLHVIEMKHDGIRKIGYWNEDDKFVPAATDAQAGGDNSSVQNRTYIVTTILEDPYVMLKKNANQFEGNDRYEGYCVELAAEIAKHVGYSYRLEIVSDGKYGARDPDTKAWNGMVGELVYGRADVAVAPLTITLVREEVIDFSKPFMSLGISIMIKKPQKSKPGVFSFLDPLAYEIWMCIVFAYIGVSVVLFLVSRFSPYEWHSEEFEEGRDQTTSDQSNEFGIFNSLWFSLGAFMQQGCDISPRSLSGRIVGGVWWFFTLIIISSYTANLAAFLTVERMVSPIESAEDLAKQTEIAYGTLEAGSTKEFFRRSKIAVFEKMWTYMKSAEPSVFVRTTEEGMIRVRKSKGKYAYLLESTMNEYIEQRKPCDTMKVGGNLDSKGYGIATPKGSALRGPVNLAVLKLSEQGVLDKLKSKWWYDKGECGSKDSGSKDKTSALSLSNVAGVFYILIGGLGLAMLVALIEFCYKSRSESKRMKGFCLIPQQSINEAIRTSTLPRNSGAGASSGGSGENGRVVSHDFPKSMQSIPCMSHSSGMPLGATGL
Sequence (Q9Y698 whole entry partner): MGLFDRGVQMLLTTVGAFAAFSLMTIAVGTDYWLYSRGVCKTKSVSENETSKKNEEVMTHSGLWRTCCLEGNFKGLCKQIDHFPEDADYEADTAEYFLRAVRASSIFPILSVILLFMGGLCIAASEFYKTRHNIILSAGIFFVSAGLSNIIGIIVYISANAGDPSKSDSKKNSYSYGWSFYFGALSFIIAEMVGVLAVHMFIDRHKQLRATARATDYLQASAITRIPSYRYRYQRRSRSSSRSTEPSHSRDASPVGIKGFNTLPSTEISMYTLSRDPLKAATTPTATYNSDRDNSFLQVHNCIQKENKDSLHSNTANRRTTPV
Experiment: AMPA receptor function enhancing activity using calcium influx as index
Format: cell-based
Conditions: test compound 30 μM with glutamic acid final 3 mM, change in fluorescence in 3 min, 100% = 3 mM glutamic acid + 300 μM cyclothiazide, 0% = 3 mM glutamic acid only
measuredAttribute: activity (%)

I. O=S1(=O)CCN2C=CN=C(c3ccc(OC4CCCCC4)nc3)C2=N1
II. CC(C)c1ccc(C2=CC=CN3CCS(=O)(=O)N=C23)cc1
Problem: # argmax over activity (%) for candidates I and II Lab note: record the label of whichever item you select.
Solution: II
